Data origin: PubChem BioAssay AID1159580

assay: chemical genetic growth profiling, strain panel (AID 1159580);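 further: tested at 20 µM; growth read once vehicle control cultures reached saturation at 30 °C; 1 = growth at the plate median or of vehicle wells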; conditions: S. cerevisiae deletion strains, growth OD, locus YOR070C, strain gyp1, stronger effect = lower value
Screen size: about 5,500 compounds; about 2,000 (36%) were called active. Roughly 18% stayed inconclusive and do not appear here. The list shows a part of the results.
Hi! Just check whether normalized growth is below 1. Below gives Satisfied, equal or above gives Not satisfied.

O=c1c(O)c(-c2ccccc2)oc2ccccc12 : Satisfied
O=c1c(O)c(-c2ccccc2)oc2ccc3occc3c12 : Satisfied
COc1ccc(CC(=O)c2ccc(O)cc2O)cc1 : Satisfied
O=C1C=C(O)c2ccccc2C1=O : Satisfied
CCCCCCCCCCCCCCCC(=O)OC[C@H](NC(=O)C(Cl)Cl)[C@H](O)c1ccc([N+](=O)[O-])cc1 : Not satisfied
COC(=O)CC1C(C)(C(=O)c2ccoc2)CC2OCC34C(CC(=O)OC)C5(C)CC36OC3(C)OC1(C(OC(C)=O)C6(OC(C)=O)C5OC(=O)C(C)C)C24O3 (configuration not stated) : Not satisfied

Please indicate whether the reported normalized growth of ClC1C(Cl)C(Cl)C(Cl)C(Cl)C1Cl (configuration not stated) is strictly below 1.
Satisfied

Please indicate whether the reported normalized growth of CC(=CC1CCC(C)C2CCC(C)=C12)C(=O)O (configuration not stated) is strictly below 1.
Satisfied

Please indicate whether the reported normalized growth of `O=c1c(O)c(-c2ccccc2)oc2cc(O)ccc12` is strictly below 1.
Satisfied

---

assay: chemical genetic growth profiling, strain panel (AID 1159580); conditions: S. cerevisiae deletion strains, growth OD, locus YLR113W, strain HOG1
Among all 5,500 compounds or so, about 2,000 (36%) were called active. Not shown: some 18% with an inconclusive outcome. No stated cut-off is given here; in the data, active means normalized growth mostly below about 0.91 (no sharp cut-off); inconclusive means no clear call, values can overlap the other calls; inactive means mostly above about 0.92. The list shows a part of the results.
Thanks in advance; please answer with one of these: y for active, n for inactive

O=[N+]([O-])c1cc(C(F)(F)F)cc([N+](=O)[O-])c1Oc1ccc(Cl)c(Cl)c1 : y
COc1ccc(CC(=O)c2ccc(O)cc2O)cc1 : n
CCOC(=O)C(O)(c1ccc(NC(=O)c2ccc(Cl)c(Cl)c2)cc1)C(F)(F)F (stereo not given) : n
CCCN(CCC)c1c([N+](=O)[O-])cc(C(F)(F)F)cc1[N+](=O)[O-] : n
O=C(CCc1ccc(O)cc1)c1c(O)cc(O)cc1O : n
COC(=O)c1cccc(NS(=O)(=O)c2ccc(Cl)c(Cl)c2)c1 : y

Test call for this molecule, please: `Cn1cc(Br)c(-c2cccc(NS(=O)(=O)c3ccc(Cl)cc3)c2)n1`
n

Test call for this molecule, please: `Cc1cc(Oc2c([N+](=O)[O-])cc(C(F)(F)F)cc2[N+](=O)[O-])c2c(Cl)ccc(C)c2n1`
n

Test call for this molecule, please: `CC(=O)NS(=O)(=O)c1ccc(N)cc1`
n

Test call for this molecule, please: COC1=CC23CCCN2CCc2cc4c(cc2C3C1O)OCO4 (stereo not given)
n

---

Field: normalized growth. Provide a value for each of the compounds that follow.
assay: chemical genetic growth profiling, strain panel (AID 1159580);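 further: tested at 20 µM; growth read once vehicle control cultures reached saturation at 30 °C; 1 = growth at the plate median or of vehicle wells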; conditions: S. cerevisiae deletion strains, growth OD, locus YGL227W, strain vid30, stronger effect = lower value
Hit rate of the full screen: of about 5,500 compounds, about 2,000 (36%) were called active. Another 18% or so got no clear call; they are omitted. This is one part of the list.
Answers are plain numbers.

Below, 2 compounds whose answers are already recorded.
Cn1c(=O)c2c(ncn2C)n(C)c1=O : 0.97
Cn1c(=O)c2c(ncn2CCO)n(C)c1=O : 1

For each of the compounds below, note its normalized growth.
1. O=C(/C=C/c1ccc(O)cc1)c1ccc(O)cc1O
2. CC(=O)O[C@@H]1C2CC[C@@H]3C1(C[C@@H](O)[C@@]1(O)[C@@H](C[C@H](O)C1(C)C)[C@]3(C)O)C[C@@]2(C)O (some centres undefined)
3. O=c1c(O)c(-c2ccccc2)oc2cccc(O)c12
4. CNC(=O)N(C)c1nnc(C(C)(C)C)s1
5. O=C(O)c1cccnc1C(=O)O

1.01
0.998
0.929
1
0.972

For each of the compounds below, note its normalized growth.
1. COC(=O)CC1C(C)(C(=O)c2ccoc2)CC2OCC34C(CC(=O)OC)C5(C)CC36OC3(C)OC1(C(OC(C)=O)C6(OC(C)=O)C5OC(=O)C(C)C)C24O3 (centres undefined)
2. Cn1c(=O)[nH]c2nc[nH]c2c1=O
3. Oc1cccc2cccnc12
4. COc1cc(O)ccc1C(C)=O
5. CC(=O)CCCCn1c(=O)c2c(ncn2C)n(C)c1=O
6. CC(C)c1cc2c(c(O)c1O)[C@@]1(C(=O)O)CCCC(C)(C)C1CC2 (some centres undefined)

1. 0.97
2. 1
3. 0.0635
4. 1.02
5. 1.01
6. 1

For each of the compounds below, note its normalized growth.
1. OC[C@H]1O[C@@H](Oc2ccc(O)cc2)[C@H](O)[C@@H](O)[C@@H]1O
2. O=C1C=CC(=O)c2ccccc21
3. Oc1cc2c(cc1O)C(c1ccccc1)CNCC2 (centres undefined)
4. COc1ccc([C@@H](C)C(=O)c2ccc(O)cc2O)cc1
5. COc1cc(O)c2c(c1)C(=O)c1cc(C)cc(O)c1C2=O

1. 1.01
2. 0.0707
3. 1.01
4. 0.983
5. 1

For each of the compounds below, note its normalized growth.
1. CC(C)N1C(=O)c2ccccc2NS1(=O)=O
2. O=C(/C=C/c1ccccc1)c1ccc(O[C@@H]2O[C@H](CO)[C@@H](O)[C@H](O)[C@H]2O)cc1O
3. CC(C)[C@@H]1CC[C@@H](C)CC1=O
4. O=C(O)[C@H]1/C(=C/CO)O[C@@H]2CC(=O)N21

1: 0.989; 2: 0.932; 3: 1; 4: 0.971

For each of the compounds below, note its normalized growth.
1. Cn1cnc2c1c(=O)[nH]c(=O)n2C
2. O=C(/C=C/c1ccccc1)c1ccc(O)cc1O

0.994
0.0642

---

experiment: chemical genetic growth profiling, strain panel (AID 1159580);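 further: tested at 20 µM; growth read once vehicle control cultures reached saturation at 30 °C; 1 = growth at the plate median or of vehicle wells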; details: S. cerevisiae deletion strains, growth OD, locus YJL115W, strain asf1
The whole screen tested about 5,500 compounds, of which about 2,000 (36%) were called active. Not shown: some 18% with an inconclusive outcome. Rule as the data show it: active = normalized growth mostly below about 0.91 (no sharp cut-off); inconclusive = no clear call, values can overlap the other calls; inactive = mostly above about 0.92. This is one part of the list.
Thanks in advance; please answer with one of these: yes (1) for active, no (0) for inactive

Illustrative cases are given below, each with its answer.
CNC(C)[C@@H]1CC[C@@H](N)[C@@H](OC2[C@@H](N)C[C@@H](N)[C@H](OC3OC[C@](C)(O)[C@H](NC)[C@H]3O)[C@H]2O)O1 (some centres not stated) : no (0)
CC(=O)OCC1=C(C(=O)O)N2C(=O)[C@@H](NC(=O)CSc3ccncc3)[C@H]2SC1 : no (0)
CC(C)CCCC(C)N (configuration not stated) : no (0)

Test call for this compound, please: CC12CCC(O)CC1CCc1ccccc12 (configuration not stated)
no (0)

Test call for this compound, please: CC(=O)O[C@@H]1C2CC[C@@H]3C1(C[C@@H](O)[C@@]1(O)[C@@H](C[C@H](O)C1(C)C)[C@]3(C)O)C[C@@]2(C)O (some centres not stated)
no (0)

Test call for this compound, please: CC(=O)O[C@H]1CC2CCC3C(CC[C@@]4(C)C3C[C@H]([N+]3(C)CCCCC3)[C@@H]4OC(C)=O)[C@@]2(C)C[C@@H]1N1CCCCC1 (some centres not stated)
no (0)

Test call for this compound, please: CCC1(C2=NCCN2)Cc2ccccc2O1 (configuration not stated)
no (0)

Test call for this compound, please: `O=C(O)c1cc(=O)c2ccccc2[nH]1`
no (0)

Test call for this compound, please: `CC(C)N1C(=O)c2ccccc2NS1(=O)=O`
no (0)

---

experiment: chemical genetic growth profiling, strain panel (AID 1159580);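 further: tested at 20 µM; growth read once vehicle control cultures reached saturation at 30 °C; 1 = growth at the plate median or of vehicle wells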; conditions: S. cerevisiae deletion strains, growth OD, locus YER133W, strain GLC7, stronger effect = lower value
Screen size: about 5,500 compounds; about 2,000 (36%) were called active. Another 18% or so got no clear call; they are omitted. This is one part of the list.
quantity name: normalized growth
Give bare numbers.

Below, 8 compounds whose answers are already recorded.
Cc1csc2c(N3CCN(C(=S)Nc4ccc(C(F)(F)F)cc4)CC3)ncnc12 : 0.974
Cc1csc2ncnc(N3CCN(C(=O)Nc4ccc(SC(F)(F)F)cc4)CC3)c12 : 0.912
CCOC(=O)C(O)(c1ccc(NC(=O)c2ccc(Cl)c(Cl)c2)cc1)C(F)(F)F (stereo not given) : 0.926
Cc1cc(Sc2c([N+](=O)[O-])cc(C(F)(F)F)cc2[N+](=O)[O-])c(Cl)cc1Cl : 0.998
O=C(Nc1ccccc1Sc1ccc(C(F)(F)F)cc1[N+](=O)[O-])C(Cl)Cl : 0.959
O=C1c2ccccc2C(=O)c2sccc21 : 0.225
O=C1C(NCc2ccccc2)=C(NCc2ccccc2)C(=O)c2ccccc21 : 0.839
O=[N+]([O-])c1cc(C(F)(F)F)ccc1Sc1n[nH]c(-c2cc(Cl)cc(Cl)c2)n1 : 0.716

For each of the compounds below, note its normalized growth.
1. COC(=S)Nc1cc(Cl)cc(Cl)c1
2. Cc1csc2ncnc(N3CCN(C(=S)Nc4ccc(C(F)(F)F)cc4)CC3)c12

1: 0.559; 2: 0.964
